Cited source for all entries: the SangsterLogP compilation

Each item that follows carries a reported logP.
Respond using a number only.

Example cases with answers are listed next.
Molecule: CC(C)CC(NC(=O)C(CCCCNC(=N)N[N+](=O)[O-])NC(=O)C(CC(=O)N1CCOCC1)Cc1cccc2ccccc12)C(O)CC(=O)NCCN1CCOCC1 (stereo not drawn)
Endpoint value: 1.95
//
Molecule: CCC(C)CNC(=O)CC(O)C(CC(C)C)NC(=O)C(CCCCN)NC(=O)C(Cc1ccc2ccccc2c1)Cc1cccc2ccccc12 (stereo not drawn)
Endpoint value: 5.25

// next entry
Item CCC(C)CNC(=O)CC(O)C(CC(C)C)NC(=O)C(CCCCNC(=S)Nc1ccccc1)NC(=O)C(Cc1ccc2ccccc2c1)Cc1cccc2ccccc12 (stereo not drawn) has what recorded logP? 6.6

---

Each item that follows carries a reported logP.
Respond using a number only.

Compound: O=CNCC#CCC(NC(=O)C(Cc1cccc2ccccc12)Cc1cccc2ccccc12)C(=O)NC(CC1CCCCC1)C(O)CC(=O)NCCN1CCOCC1 (stereo unspecified)
logP: 5.44
//
Compound: CCC(C)CNC(=O)CC(O)C(CC(C)C)NC(=O)C(CCCCn1cccc1)NC(=O)C(CC1=Cc2ccccc2C1)Cc1cccc2ccccc12 (stereo unspecified)
logP: 7.21
//
Compound: CCC(C)CNC(=O)CC(O)C(CC(C)C)NC(=O)C(CC=CCNC(C)=O)NC(=O)C(Cc1ccc2ccccc2c1)Cc1cccc2ccccc12 (stereo unspecified)
logP: 5.56
//
Compound: CCC(C)CNC(=O)CC(O)C(CC(C)C)NC(=O)C(CCCCNP(=O)(Oc1ccccc1)Oc1ccccc1)NC(=O)C(Cc1ccc2ccccc2c1)Cc1cccc2ccccc12 (stereo unspecified)
logP: 7.88
//
Compound: CNC(=S)NCCCCC(NC(=O)C(Cc1ccc2ccccc2c1)Cc1cccc2ccccc12)C(=O)NC(CC(C)C)C(O)CC(=O)NCCN1CCOCC1 (stereo unspecified)
logP: 3.91

// next entry
Item CC(C)CC(NC(=O)CC(O)C(CC(C)C)NC(CCCCNC(=N)N[N+](=O)[O-])NC(=O)C(Cc1ccc2ccccc2c1)Cc1cccc2ccccc12)C(=O)NCc1ccccc1 (stereo unspecified) has what recorded logP? 5.51

---

// label = t if logP is not less than 5, otherwise f

Compound: CC(C)(C)OC(=O)NCC#CCC(NC(=O)C(Cc1ccc2ccccc2c1)Cc1cccc2ccccc12)C(=O)NC(CC1CCCCC1)C(O)CC(=O)NCCN1CCOCC1 (stereo unspecified)
Classification: t

Compound: CC(C)CC(NC(=O)C(CCCCNC(=O)OCc1ccccc1)NC(=O)C(Cc1ccccc1)NS(=O)(=O)N1CCOCC1)C(=O)C(F)(F)C(=O)NCCN1CCOCC1 (stereo unspecified)
Classification: f

Compound: CNC(=S)NCCCCC(NC(=O)C(Cc1ccc2ccccc2c1)Cc1cccc2ccccc12)C(=O)NC(CC1CCCCC1)C(O)CC(=O)NCCN1CCOCC1 (stereo unspecified)
Classification: t

Compound: O=C(CC(O)C(CC1CCCCC1)NC(=O)C(NC(=O)C(Cc1ccccc1)NS(=O)(=O)N1CCOCC1)C1=CN=N1)NCCN1CCOCC1 (stereo unspecified)
Classification: f

Compound: CCC(C)CNC(=O)CC(O)C(CC(C)C)NC(=O)C(CCCCNC(C)=O)NC(=O)C(Cc1ccc2ccccc2c1)Cc1cccc2ccccc12 (stereo unspecified)
Classification: f

Please look at the following compound next.
State whether the measured logP reaches 5, counting equality as reaching it, for CCC(C)CNC(=O)CC(O)C(CC(C)C)NC(=O)C(CCCCNS(=O)(=O)c1ccc(C)cc1)NC(=O)C(Cc1ccc2ccccc2c1)Cc1cccc2ccccc12 (stereo unspecified) t
